B1: KLHL20 (parent)
chain: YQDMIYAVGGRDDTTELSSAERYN

Variants of: B1
Test: protein stability index of a GFP-peptide fusion (GPS, HEK-293T) (PSI 1-6); higher = more stable;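 further: lentivirally expressed fusions sorted by FACS into six bins by GFP to DsRed ratio, PSI derived from sequencing read proportions per bin multiplied by bin number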
Conditions: c terminus: a fixed tail appended
ASSAY_METRIC: protein stability index

variant_string=Q2D value_observed=4.86
variant_string=Y1M value_observed=4.1
variant_string=E16Y value_observed=1.69
variant_string=V8P value_observed=2.79
variant_string=T14S value_observed=2.48
variant_string=Q2L value_observed=2.85
variant_string=A7L value_observed=2.01
variant_string=A7N value_observed=2.92
variant_string=R11A value_observed=2.54
variant_string=R22E value_observed=2.53
variant_string=L17Y value_observed=2.03
variant_string=R22S value_observed=2.48
variant_string=G10K value_observed=1.83
variant_string=M4W value_observed=2.85
variant_string=R11W value_observed=2.08
variant_string=Y6M value_observed=2.98
variant_string=L17K value_observed=2.41
variant_string=Y23G value_observed=2.18
variant_string=G9C value_observed=2.23
variant_string=Y1G value_observed=4.66
variant_string=I5S value_observed=3.53
variant_string=S18I value_observed=2.12
variant_string=A7M value_observed=1.96
variant_string=S18G value_observed=2.5
variant_string=Y23V value_observed=2.93
variant_string=G10Y value_observed=1.8
variant_string=V8F value_observed=1.87
